Provide the reported microsomal CLint at 1 μM of each item.
Test: Metabolic stability (intrinsic clearance) in human liver microsomes
Format: in vitro ADME
Conditions: pH 7.4, 0.1 mg/mL protein, 1 μM, mean of two determinations
Report the value in µL/min/mg with no unit label.

microsomal CLint at 1 μM measured on CCCCCCCCc1ccc(CCC(CO)(CO)NC(C)=O)cc1 [FTY720-C2] = 18.3

microsomal CLint at 1 μM measured on CCCCCCCCc1ccc(CCC(CO)(CO)NC(=O)CC[P+](c2ccccc2)(c2ccccc2)c2ccccc2)cc1 [FTY720-Mitoxy] = 17.5

----------
Assay: Metabolic stability (intrinsic clearance) in mouse liver microsomes
Format: in vitro ADME, mouse (CD-1)
Settings: CD-1, mouse, liver microsomes, pH 7.4, mouse liver microsomes, 0.1 mg/mL protein, 1 μM, mean of two determinations
quantityName: microsomal CLint at 1 μM (µL/min/mg)
Report the value in µL/min/mg with no unit label.

microsomal CLint at 1 μM measured on CCCCCCCCc1ccc(CCC(CO)(CO)NC(=O)CC[P+](c2ccccc2)(c2ccccc2)c2ccccc2)cc1 = 1.8

----------
Assay: Plasma and brain pharmacokinetics after single oral or intravenous dosing of mice
Assay type: in vivo
Settings: male, mouse, in vivo, iv, 2 mg/kg, mice, IV, plasma and brain; read-out: half-lives
Method: The objectives of this study were to evaluate the pharmacokinetic profiles of FTY720-C2 and FTY720-Mitoxy following single oral and intravenous (IV) dosing of male mice and to determine blood and tissue levels of both compounds at various postdose time points. Male C57BL/6 mice were 8.4 weeks of age and weighed 20.6–24.8 g on the day of dose administration. […] FTY720-C2 and FTY720-Mitoxy concentrations in plasma and brain were determined by LC-MS/MS. […]
quantityName: half-life

half-life measured on CCCCCCCCc1ccc(CCC(CO)(CO)NC(=O)CC[P+](c2ccccc2)(c2ccccc2)c2ccccc2)cc1 [FTY720-Mitoxy] = < 2 h

----------
Assay: Plasma and brain pharmacokinetics after single oral or intravenous dosing of mice
Format: in vivo
Conditions: male, C57BL/6, mouse, plasma; IV dosing, FTY720-C2 1 mg/kg or FTY720-Mitoxy 2 mg/kg; first sampling time point; read-out: Tmax / time of highest concentration in plasma (converted)
quantityName: Tmax (min)
Report the value in min with no unit label.

Tmax measured on CCCCCCCCc1ccc(CCC(CO)(CO)NC(C)=O)cc1 = 5

----------
Experiment: Metabolic stability (intrinsic clearance) in mouse liver microsomes
Type: in vitro ADME, mouse (CD-1)
Conditions: CD-1, pH 7.4; mouse liver microsomes, 0.1 mg/mL protein, 1 μM, mean of two determinations
quantityName: microsomal CLint at 1 μM
Returns: string containing the number followed by the unit.

microsomal CLint at 1 μM measured on CCCCCCCCc1ccc(CCC(CO)(CO)NC(C)=O)cc1 = 22.5 µL/min/mg

----------
Experiment: Metabolic stability (intrinsic clearance) in rat liver microsomes
Type: in vitro ADME, rat (Sprague-Dawley)
Conditions: Sprague-Dawley, pH 7.4; rat liver microsomes, 0.1 mg/mL protein, 1 μM, mean of two determinations
quantityName: microsomal CLint at 1 μM (µL/min/mg)
Report the value in µL/min/mg with no unit label.

microsomal CLint at 1 μM measured on CCCCCCCCc1ccc(CCC(CO)(CO)NC(C)=O)cc1 = 79.5

microsomal CLint at 1 μM measured on CCCCCCCCc1ccc(CCC(CO)(CO)NC(=O)CC[P+](c2ccccc2)(c2ccccc2)c2ccccc2)cc1 = 7.8
